Sourced from patent US11613531B2

assayed.system: Recombinant ROCK1 (amino acids 1-535) (Homo sapiens (Human))
Sequence (Q13464 1-535): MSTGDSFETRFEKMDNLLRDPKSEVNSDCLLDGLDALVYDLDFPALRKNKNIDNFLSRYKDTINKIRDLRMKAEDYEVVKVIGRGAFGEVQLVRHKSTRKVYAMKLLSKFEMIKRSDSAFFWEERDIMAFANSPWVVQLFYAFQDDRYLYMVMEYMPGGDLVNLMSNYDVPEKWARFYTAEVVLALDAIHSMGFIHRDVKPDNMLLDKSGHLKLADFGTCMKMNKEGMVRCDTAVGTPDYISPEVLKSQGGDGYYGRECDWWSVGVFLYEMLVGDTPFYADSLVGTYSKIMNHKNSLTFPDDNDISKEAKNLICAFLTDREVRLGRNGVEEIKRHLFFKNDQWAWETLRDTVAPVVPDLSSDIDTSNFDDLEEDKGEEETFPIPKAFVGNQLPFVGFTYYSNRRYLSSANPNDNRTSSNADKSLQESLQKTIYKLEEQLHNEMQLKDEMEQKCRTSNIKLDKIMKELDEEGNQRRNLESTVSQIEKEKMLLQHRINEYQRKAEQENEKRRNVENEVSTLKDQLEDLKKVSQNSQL
assay.explanation: Z′-Lyte kinase assay, ROCK1
Assay type: biochemical
condition.parameters: 0.5 μM compound; read-out: ROCK1 % inh. @ [conc]
Procedure: Determination of Compound's ROCK Inhibitory Activity In Vitro (Z'Lyte Assay). Recombinant ROCK1 (amino acids 1-535) and ROCK2 (amino acids 1-552) proteins were purchased from ThermoFisher Scientific. Compound's activities were measured by Z′-lyte kinase kit (ThermoFisher Scientific) and IC50 was calculated In vitro activities for the compounds were measured with Z′-lyte kinase kit (ThermoFisher Scientific). […] In cell pMLC IC50s were calculated with data obtained from A7R5 cell experiments. […]
If the reported inhibition at 0.5 µM equals or exceeds 80%, assign T. If not, assign F.

molecule: c1cc2[nH]ncc2cc1Nc1nc(N2C3CCC2CNC3)nc2c1COCC2 [Example 46]
discrete.label: T

molecule: CCOC(=O)C1NC2CC1CN(c1ncc(F)c(Nc3ccc4[nH]ncc4c3)n1)C2 (centres unmarked) [Example 339]
discrete.label: F

molecule: CCOC(=O)[C@]12CCNCCC1CN(c1ncc(Cl)c(Nc3ccc4[nH]ncc4c3)n1)C2 (some centres unmarked) [Example 323]
discrete.label: F

molecule: c1cc(-c2cn[nH]c2)ccc1Nc1nc(N2C3CNCC2C3)nc2c1COCC2 [Example 317]
discrete.label: F

molecule: Cc1nc(N2C3CCC2CNC3)nc(Nc2ccc3[nH]ncc3c2)c1F [Example 302]
discrete.label: T

molecule: CN1CCc2c(nc(N3C4CNCC3C4)nc2Nc2ccc3[nH]ncc3c2)C1 [Example 313]
discrete.label: T

molecule: CCOOCC12CNCC1(C(F)(F)F)CN(c1ncc(F)c(Nc3ccc4[nH]ncc4c3)n1)C2 (centres unmarked) [Example 328]
discrete.label: F
